# Test system: M. tuberculosis H37Rv growth inhibition
# test_method_notes: M. tuberculosis H37Rv growth inhibitors, H37Rv strain (AID 1626)
# measurement_setup: measured here: IC90 against H37Rv
Task for the reader: assign each of the following compounds its reported IC90.
Note: unit µM is implicit; provide only the numeric part.

Quick one: IC90 for COc1cc(-c2nnc(SCC(=O)OC3CCCCC3)o2)cc(OC)c1OC ? 1.78

Also need O=C(Nc1ccc2c(c1)OCCO2)c1cccc2nc3ccccc3nc12 , thanks. 2.17

Next compound up: O=C(Nc1nc(-c2ccccn2)cs1)C1CCCC1 5.83

And CCOC(=O)c1ccc2ncc(C(=O)OCC)c(Nc3ccc(N4CCOCC4)cc3)c2c1 ? 22.7

Try this compound too: CCc1ccc(Nc2nnc(SCC(=O)Nc3cccnc3Cl)s2)cc1 13.6

Please give the result for CC(=O)c1ccc(NC(=O)c2cc(CC(C)C)on2)cc1 too. 42.9

Entry COc1ccc(Cn2c(SCc3cc(C)ccc3C)nc3cc(OC)c(OC)cc3c2=N)cc1 please 2.83

Another compound to check: NC1CCN(c2nc3c(cc2F)c(=O)c(C(=O)O)cn3-c2ccc(F)cc2F)C1 (stereo not drawn) 4.21

Now give it for CCCCNC(=O)Nc1nnc(-c2ccc(Cl)cc2)o1 too. 3.59

Entry CCCCCCCCn1c2c(c(=N)c3ccccc31)CCC2 please 9.17

Same lookup for O=C(Nc1nnc(-c2ccc3c(c2)CCCC3)o1)c1ccc(Cl)cc1Cl , please. 0.962

Also CCCn1c(=N)c(C(=O)NCc2ccc3c(c2)OCO3)cc2c(=O)n3cccc(C)c3nc21 ? 31.7

Also check Cn1c(N=Nc2ccccc2)nc2ccccc21 1.89

Origin of measurements: PubChem BioAssay AID1626
